- Assay Comment: NCI Yeast Anticancer Drug Screen. Data for the bub3 strain (AID 167)
- Assay Context: S. cerevisiae bub3 mutant strain, at 50.0 µM, stronger effect = higher value
The panel holds about 79,000 compounds, 15% with a hit somewhere; the sample as a whole holds those more often.
Please use True whenever growth inhibition is not below 90%, and False whenever it is.

{"Compound": "CC1(C)OC(C(COC(=O)c2ccc([N+](=O)[O-])cc2)OS(=O)(=O)c2ccc([N+](=O)[O-])cc2)C(C(SCc2ccccc2)SCc2ccccc2)O1 (configuration not stated)", "Category": "False"}
{"Compound": "O=C1C(Cl)=C(Cl)C(=O)c2cc(Cl)c(Cl)cc21", "Category": "True"}
{"Compound": "O=S(=O)(/C=C/c1cccnc1)/C=C/c1cccnc1", "Category": "False"}
{"Compound": "Cc1c(Cl)c(Cl)cc([N+](=O)[O-])c1Cl", "Category": "False"}
{"Compound": "O=c1c2[nH]c3cccc(Cl)c3c2cnn1-c1ccc(F)cc1", "Category": "True"}
{"Compound": "Cc1ccc2c(c1)C1(SC(C)C(=O)N1c1ccc(Cl)cc1)C(=O)N2CN1CCOCC1 (configuration not stated)", "Category": "False"}
{"Compound": "O=C(N/C(=C/c1ccc(Cl)cc1Cl)c1nc2ccccc2s1)c1ccccc1", "Category": "True"}
{"Compound": "Cc1ccc(NC(=S)SCc2ccc(Cl)cc2)cc1C", "Category": "True"}
{"Compound": "COc1cccc2c1C(=O)c1c(O)c3c(c(O)c1C2=O)CC(O)(C(C)=O)CC3OC1CC(NCC2(O)OCC(O)C(O)C2O)C(O)C(C)O1 (configuration not stated)", "Category": "False"}
{"Compound": "CNc1ccc(F)cc1SSc1cc(F)ccc1NC", "Category": "True"}
{"Compound": "[C-]#[N+]C(C)(c1ccccc1)c1ccccc1", "Category": "True"}
{"Compound": "NC(=O)C1CCCN1C(=O)C1CCCN(Cc2cc(CN3CCCC(C(=O)N4CCCC4C(N)=O)C3)cc(CN3CCCC(C(=O)N4CCCC4C(N)=O)C3)c2)C1 (configuration not stated)", "Category": "False"}
{"Compound": "O=C1c2scc(-c3ccccc3)c2-n2cccc21", "Category": "False"}
{"Compound": "COc1c(O)ccc2c1CN1CCc3cc4c(cc3C1C2)OCO4 (configuration not stated)", "Category": "False"}
{"Compound": "O=C1C(Cl)=C(Cl)C(=O)C2=C1CC(Cl)C(Cl)C2 (configuration not stated)", "Category": "True"}
{"Compound": "CCCCCCCCCCCCCCCCOS(=O)(=O)O", "Category": "True"}
{"Compound": "CCOC(=O)CC1=NC(=Nc2cc(Cl)ccc2Cl)SC1", "Category": "False"}
{"Compound": "CSC(C=P(c1ccccc1)(c1ccccc1)c1ccccc1)=Nc1ccccc1", "Category": "True"}
{"Compound": "C=CCCCCCCCCC(=O)OCC=C", "Category": "False"}
{"Compound": "CS(=O)(=O)OCCN(CCOS(C)(=O)=O)c1ccc(C=Nc2cc(Br)c(O)c(Br)c2)c(Cl)c1", "Category": "False"}
{"Compound": "CCc1nc(N)nc(N)c1-c1ccc(NCCCN)c([N+](=O)[O-])c1", "Category": "False"}
{"Compound": "NNC(=O)N/N=C(/CC1(O)C(=O)Nc2ccc(Br)cc21)c1ccccc1 (configuration not stated)", "Category": "False"}
{"Compound": "CCC[CH2][Ge]([CH2]CCC)([CH2]CCC)[O]C(=O)CC(=O)c1ccccc1", "Category": "False"}
{"Compound": "C1=C(c2ccccc2)C(=Nc2ccccc2)SC1=Nc1ccccc1", "Category": "True"}

Values compiled from PubChem BioAssay (NCI).
